Listed here: compounds with reported Ki for Adenosine receptor A1 (Bos taurus).
readout_name: Ki (nM)

> print(dat)
                                   compound  quantitative.readout
1  O=C(Nc1nc2ccccc2n2c(=O)n(-c3ccc(Cl)cc3)nc12)c1ccccc1                   100
2  CCCNc1c(C(=O)OCC2CC2)cnc2c1cnn2CC(Cl)c1ccccc1 (stereo not drawn)                   100
3  Cc1ccc(CCNc2c(C(=O)OCC3CC3)cnc3c2cnn3CC(Cl)c2ccccc2)cc1 (stereo not drawn)                  63.1
4  CCOC(=O)c1cnc2c(cnn2CC(Cl)c2ccccc2)c1NCc1ccccc1 (stereo not drawn)                   126
5       Cn1c2ccccc2n2c(=O)c(-c3ccccc3)nnc12                  63.1
6  CCOC(=O)c1cnc2c(cnn2CC(Cl)c2ccccc2)c1NC1CC1 (stereo not drawn)                   126
7  CCOC(=O)c1cnc2c(cnn2CC(Cl)c2ccccc2)c1N1CCCC1 (stereo not drawn)                   100
8  CCCNc1c(C(=O)OCC)cnc2c1cnn2CC(Cl)c1ccccc1 (stereo not drawn)                   100

Data provenance is ChEMBL document CHEMBL1139469.
